# tested_on: Phosphoethanolamine/phosphocholine phosphatase (Homo sapiens)
# assay_procedure: PubChem AID 1565
# condition_context: recombinant PHOSPHO1, absorbance phosphatase assay; at 13.3 µM; stronger effect = higher value
Screen size: about 290,000 compounds; about 3,200 (1.1%) were called active. The sample holds actives, similar compounds and a random draw of the others, so the mix is not that of the screen.
property_measured: inhibition (%)

| compound | property_measured | value_measured |
| --- | --- | --- |
| Cc1nc(NC(=O)c2cccc(Cl)c2)sc1-c1csc(Nc2cccc(Cl)c2)n1 | inhibition | 19.2 |
| CCc1ccc(NC2Nc3cc(C)nn3S2)cc1 (stereo not given) | inhibition | -1 |
| C=CCCC(=O)Nc1nc(C)c(-c2csc(Nc3ccc(Cl)cc3)n2)s1 | inhibition | -1.4 |
| Cn1c(=O)n(C)c2cc(NS(=O)(=O)c3ccc(F)cc3)ccc21 | inhibition | 38.9 |
| COC(=O)c1ccc(CN2CCCC(C(=O)Nc3cccc(-n4cnnn4)c3)C2)cc1 (stereo not given) | inhibition | 22.6 |
| Cc1nn(C)cc1C(=O)NNC(=S)Nc1ccc(Cl)cc1 | inhibition | 97.7 |
| COC(=O)c1cccc(N2C(=O)C3C4C=CC(CC4)C3C2=O)c1 (stereo not given) | inhibition | 37.1 |
| Cn1nccc1NS(=O)(=O)c1ccc(F)cc1 | inhibition | 69.9 |
| CCOC(=O)c1ccc(Nc2cc(C)nc3nc(C)nn23)cc1 | inhibition | -1.2 |
| Cc1c(Cc2ccccc2)c(=O)oc2cc(OCC(N)=O)ccc12 | inhibition | 61.5 |
| C=CCn1c(SCC(=O)Nc2nc3ccccc3s2)nnc1-c1ccccc1O | inhibition | -17.5 |
| COc1ccc(-c2nnc(SCC(=O)c3cccs3)o2)c(OC)c1 | inhibition | 28.9 |
| NC(=O)COc1ccc2c3c(c(=O)oc2c1)CCCCC3 | inhibition | 18 |
| CCOC(=O)c1sc(=S)n2c1[nH]c(=O)c1ccc(C(=O)OC)cc12 | inhibition | 98.7 |
| Cc1ccc(NC(=O)C2CCN(S(=O)(=O)c3ccc4c(c3)NC(=O)CO4)CC2)cc1C | inhibition | 26.1 |
| CCn1c(Cc2cccs2)nnc1SCC(=O)c1ccc(C)cc1 | inhibition | 67.3 |
| CC(C)[C@@H]1COC(c2cccc(C3=N[C@H](C(C)C)CO3)c2)=N1 | inhibition | -1.7 |
| Cc1ccc(S(=O)(=O)Nc2nc3ccccc3nc2N2CCc3ccccc3C2)cc1 | inhibition | 10.5 |
| COc1ccccc1N1CC(C(=O)Nc2nnc(SCC(=O)NC(C)C)s2)CC1=O (stereo not given) | inhibition | -84.3 |
| Brc1ccc(-c2nnc(-c3ccccc3)o2)o1 | inhibition | -10.5 |
| Cc1ccc(-n2c(Cc3cccs3)nnc2SCC(=O)OC(C)C)cc1 | inhibition | 4.6 |
| O=C(CSc1nc2ccc(Nc3nc(N4CCOCC4)nc(N4CCOCC4)n3)cc2s1)NCc1ccco1 | inhibition | 16.2 |
| CCCC(=O)N1CCN(c2nnc(-c3ccc(C)cc3)c3ccccc23)CC1 | inhibition | 30.8 |
| Cc1ccc(C)c(NC(=O)NNC(=O)c2ccc3ccccc3c2O)c1 | inhibition | 6.1 |
| Cn1cc(Cl)c(C(=O)NNC(=S)Nc2cccc(Cl)c2)n1 | inhibition | -35.3 |
| O=C(Nc1ccc([N+](=O)[O-])cc1)OCCc1ccccn1 | inhibition | 17.9 |
| COc1ccc2[nH]c(C(=O)N/N=C/c3cc(OC)c(OC)c(OC)c3)cc2c1 | inhibition | 9.8 |
| CCCCC(=O)Nc1nc(C)c(-c2csc(Nc3ccc(Cl)cc3)n2)s1 | inhibition | 28.7 |
| O=C(NCc1ccc(Cl)cc1)c1cc2c(nc3sccn32)s1 | inhibition | 66.1 |
| Cc1cc(C)cc(NS(=O)(=O)c2ccc(F)cc2)c1 | inhibition | 28.3 |
| Cc1ccc(N(C(=O)c2snc(C(N)=O)c2N)C(C(=O)NCC2CCCO2)c2c[nH]c3ccccc23)cc1 (stereo not given) | inhibition | 35.7 |
| Cc1nn(C)cc1CNC(=O)Nc1ccc(Cl)cc1 | inhibition | 8 |
| O=C(NCc1ccc(Cl)cc1)c1cc(=O)nc2sc(-c3ccccc3)nn12 | inhibition | 19.7 |
| Cc1cc(N2CCN(S(=O)(=O)c3ccc(C)c(C)c3)CC2)c2ccccc2n1 | inhibition | -5.3 |
| O=C(/C=C/c1cccc(C(F)(F)F)c1)N1CCN(c2ccccn2)CC1 | inhibition | 23.3 |
